Reference for the values: patent US20230391879A1

system: T1, Canine IL-31RA ECD-10His (canine)
T1 construct: made in HEK-293 or CHO cells and coated on the ELISA plates; also called canine IL-31 receptor alpha extracellular domain HIS-tagged protein; cIL-31RA
T1 chain: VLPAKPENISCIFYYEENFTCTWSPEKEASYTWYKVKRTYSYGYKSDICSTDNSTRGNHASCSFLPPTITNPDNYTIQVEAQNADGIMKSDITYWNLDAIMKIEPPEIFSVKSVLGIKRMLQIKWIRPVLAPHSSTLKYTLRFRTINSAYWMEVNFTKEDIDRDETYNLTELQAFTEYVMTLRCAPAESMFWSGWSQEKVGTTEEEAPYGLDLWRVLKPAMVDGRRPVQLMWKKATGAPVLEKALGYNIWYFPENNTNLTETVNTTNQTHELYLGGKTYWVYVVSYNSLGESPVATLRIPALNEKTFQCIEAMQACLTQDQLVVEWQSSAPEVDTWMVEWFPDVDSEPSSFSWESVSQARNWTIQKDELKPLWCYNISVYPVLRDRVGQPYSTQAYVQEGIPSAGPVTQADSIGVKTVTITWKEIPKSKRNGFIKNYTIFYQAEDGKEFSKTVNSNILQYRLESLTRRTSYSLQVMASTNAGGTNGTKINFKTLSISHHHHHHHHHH
method-notes: ELISA (FIG. 6A)
assay-readout: binding result

Qu. Let me know recorded binding result for caninized 10A12VH1VL6 (antibody, V domains shown, Caninized antibody, canine IgG-Bm heavy chain and canine lambda light chain; also called c10A12VH1-cIgGBm + c10A12VL6-cCL) VH: EVQLVESGGDLVKPGGSLRLSCVASGFTFSNYYMAWVRQAPGKGLQWVASISTGGGNTYYRDSVKGRFTISRDNAKNTLYLQMNSLRAEDTAMYYCAKHGTLYFDYWGQGTLVTVSS VL: QPVLTQPPSLSASLGTTARLTCERSSGDIGDSYVSWYQQKPGSPPRDVIYVDDQRPSEVSKSFSGSKDTSANAGLLLISGLQPEDEADYFCQSYDSNIDGPVFGGGTHLTVLG , thanks.
Ans. binds
